The measured values listed here are drawn from the EternaBench riboswitch data.

This section presents sequences with their documented apparent Kd values.
- Tested on: MS2 coat protein
- procedure text: apparent Kd, MS2 coat protein; higher = weaker binding; RNA-MaP array; FMN 200 µM where present
- assay setup: designed as: ON switch for flavin mononucleotide; no ligand
Phrase the answer as number then unit, nothing more needed.

Check the records and state apparent Kd for GUAGCUAUCGGAGGAUAUUCAUACUGGAAACGGACAUGAGGAUCACCCAUGUGGCGAAAGCCUUGGGAGAAGGCCGAUCGCUAC
123 nM

Check the records and state apparent Kd for GGAGCCGGCCUAGGAUAUUUCAUAUUUAAACAUGAGGAUCACCCAUGUAGGCCAGAAGGCCUUGGGAAGAAGGAGGUCGGCUCC
88.1 nM

Check the records and state apparent Kd for UUGGCAACGUAGAAGGGUGACAUGAGGAUCACCCAUGUGCCGAUAUAUCUCGAGAUAUGUCGGCCACAGGAUAUACGUGCCAUC
35.9 nM

Check the records and state apparent Kd for AUUUAGUGCGAGAAGGCGUGGUCACAUGAGGAUCACCCAUGUCAGUACACGAGGAUAUCGAUCCGCUAUGUAAAUAUAUGCGGC
78 nM

Check the records and state apparent Kd for AACUUGCGCACAGGAUAUCCACGGAGCGGACGUGGAGAAGGGUGACAUGAGGAUCACCCAUGUACGUAAGUCUAGAUCACUUCC
198 nM

Check the records and state apparent Kd for GCAUGCGUUCGAGGAUAUCGGUGAGAAACGGAACGAGAAGGCGAUCGAAUGUCUCAUCUUAUGAACAUGAGGAUCACCCAUGUA
299 nM

Check the records and state apparent Kd for GACGUACAUGAGGAUCACCCAUGUACAAACGUACAAGGAUAUGUGUGGAAACCGUACUAUACAGAAGGUGUUUGUC
14.3 nM

Check the records and state apparent Kd for ACAUACUUUCGAGGAUAUCGGUGAUAAAUUUUACGAGAAGGCGAUAAAAGAUAUAAUCUUAUAAACAUGAGGAUCACCCAUGUA
25.5 nM

Check the records and state apparent Kd for CUUAUUAAACAAGGAUAUCAUUUGUGUACAAGUUUUACAUGAGGAUCACCCAUGUUAAAUGGUUUUGAGAAGGUGUUUAGAACU
58.4 nM

Check the records and state apparent Kd for AUGAUUAUAUUAUACAUGAGGAUCACCCAUGUUAUAAGUCAUGAGGAUAUGGUAUUGUAGUUUUUCCAGAAGGCAUUUAACUUA
7.91 nM

Check the records and state apparent Kd for GGUCGUCACAUAUACAUGAGGAUCACCCAUGUCAAAAGACAUGAGGAUAUGGAUAAUAAUAUAAACCAGAAGGCAUGGACGACC
961 nM

Check the records and state apparent Kd for GCUGUGGCAUGAGGAUAUGGUCUGCUUUGCAGACCAGAAGGCAUGUCAAUAGACAUGAGGAUCACCCAUGUAGUUAACACAGCA
510 nM

Check the records and state apparent Kd for UGGUACUAGGGAGGAUAUGGGAAGAUACAUGAGGAUCACCCAUGUUUAAGAAUGCCGAGAGACAACUAGAAGGCCCUAGUACCU
240 nM

Check the records and state apparent Kd for GCGUAUAUAUUAUUUAUUUAACUGUCAGAAGGUGAGAAGACGACAUGAGGAUCACCCAUGUUAUUCAAGGAUAUGAUAAUGCGC
13.5 nM

====

- System: MS2 coat protein
- procedure text: apparent Kd, MS2 coat protein; higher = weaker binding; RNA-MaP array
- assay setup: ligand present: theophylline; designed as: OFF switch for theophylline
parameter: apparent Kd (µM)
Quick note: give the figure in µM, leave out the unit.

Example cases with answers are listed next.
residue sequence: AAGGCUACGACCGAUACCAGUAGACGGCAUUCGUAGGAGAACAUGAGGAUCACCCAUGUCUACCCUUGGCAGCGGAAAAUACACU
result: 0.0398
--
residue sequence: GUAGCUGAGUGUGAUACCAGAAACGACGUCCUUUAUCAUAACAUGAGGAUCACCCAUGUCUUCCCUUGGCAGCACUUUUCGGUCU
result: 0.0648
--
residue sequence: UGGUAGCCACACUUCAAACAUCGACAAGAUACCAGUUAAUCAACGAACCCUUGGCAGCUUCGUACAUGAGGAUCACCCAUGUGGA
result: 0.023
--
residue sequence: CCCAAGCCAGCUGAUACCAGUGACGUGGUCAGAAUGUGCGACAUGAGGAUCACCCAUGUACACCCUUGGCAGCAGUAGAACGGUU
result: 0.0517

Lab note: record apparent Kd of GAUUGCAUCGAUUCUCCACUCGCACCUGAUACCAGCGAUAGAAUUCGCCCUUGGCAGCAGUACACAUGAGGAUCACCCAUGUUAU tested on MS2 coat protein.
0.0751

Lab note: record apparent Kd of CAAGCACCAACCGAUACCAGCUUAGUAGUAUGCUCAUUAAACAUGAGGAUCACCCAUGUGAGCCCUUGGCAGCGGAUUUCCCUGC tested on MS2 coat protein.
0.0207

Lab note: record apparent Kd of CAUGGGCUAAGACAUUAUUCGUAUUUUGAUACCAGAAAAUUGGCGUUCCCUUGGCAGCAAUAUACAUGAGGAUCACCCAUGUCCC tested on MS2 coat protein.
0.0939

====

- System: MS2 coat protein
- procedure text: apparent Kd, MS2 coat protein; higher = weaker binding; RNA-MaP array; FMN 200 µM where present
- assay setup: designed as: ON switch for flavin mononucleotide; no ligand
parameter: apparent Kd

residue sequence: GUCGGAAACGACAAAAGUAGCAUACGAGAAGGCUGAUCCACGACAUGAGGAUCACCCAUGUACUUAGAGGAUAUUGGAUGCUAC
apparent Kd: 0.11 µM

Check the records and state apparent Kd for GGGUACAUCGGAGGAUAUCAUGUAAAUACAUGAGGAUCACCCAUGUCGAUGGAGACAUCGAAGAUUGAGAAGGCCGAUGUACCG
0.0168 µM

Check the records and state apparent Kd for UUGGACGACGUAGGAUAUGUAGGAUAUUCCUACAUGAGGAUCACCCAUGUUGACAUGGAAGAAGGACAGAAGGACGAUGUCCAU
0.261 µM

Check the records and state apparent Kd for UCGAAAAUACAAGGAUAUCAAUUGUAGCUAAAUUCAACAUGAGGAUCACCCAUGUAACUAUGGAGUGAGAAGGUGUAGUAAUUU
0.113 µM

Check the records and state apparent Kd for GUAGCAUGCCAAGGAUAUUCAUAUAGUAGGCAAACAUGAGGAUCACCCAUGUAGUGAGAGCCCUGGGAGAAGGUGGGAUGCUAC
0.0179 µM

Check the records and state apparent Kd for UUGGUUGUCGUAGGAUAUGUAGGAUAUUCCUACAUGAGGAUCACCCAUGUUCGCAUGGAAGAAGGACGGAAGGACGAUGACCAU
0.317 µM

Check the records and state apparent Kd for CGACAAGUCGUAGGAUAUGGUGAUGUACAUGAGGAUCACCCAUGUCCGUCUUCUCUCACAAGAUGCCAGAAGGGCGACUUCCGG
0.676 µM

Check the records and state apparent Kd for GUAGCAUACCGAGGAUAUUCAGGGCGUGGAUAUACAUGAGGAUCACCCAUGUGGCGGAAGCCUAGGGAGAAGGCGGGCUGCUUC
0.0246 µM

Check the records and state apparent Kd for UGGUACUAGGGAGGAUAUGGGAAGAUACAUGAGGAUCACCCAUGUUUAAGAAUGCCGAGAGGCAACUAGAAGGCCGUAGUACCU
0.466 µM

Check the records and state apparent Kd for CCGAUGAUAGGACAGGAUAUGACUGUCGUCACAUGAGGAUCACCCAUGUCCCGGCAAUGCCACCGUUAGAAGGGUCCUAUCUCGG
0.0131 µM

Check the records and state apparent Kd for AACAAUCUAUCUGAGGAUAUUAUGAAAUAAACAUGAGGAUCACCCAUGUGCAGGAAAACUGCAUAUGAGAAGGCAGAUAGAUUGA
0.428 µM

Check the records and state apparent Kd for ACUAGAAGCGUGAGAUAUCACAUGAGGAUCACCCAUGUGACACAGGAUAUAACAAUAUCAGAAGGUUAGAAGGGUGAGCACGCC
0.164 µM

Check the records and state apparent Kd for CUGCUCGUAGAGAAGGCGUGGGCACAUGAGGAUCACCCAUGUCGCAGUACGAGGAUAUUUGCCGGCCCGCCCAAAAUGGCGCGA
0.22 µM

Check the records and state apparent Kd for AGACUGAAGCAAGGAUAUUGUAAGGUUAUCGUACAAGAAGGUGCUGUUUAUGUCUCUUAACAUGAGGAUCACCCAUGUUUUGAA
0.0184 µM

====

- Tested on: MS2 coat protein
- procedure text: apparent Kd, MS2 coat protein; higher = weaker binding; RNA-MaP array
- assay setup: designed as: OFF switch for flavin mononucleotide; no ligand
This section presents sequences with their documented apparent Kd values.
Quick note: give the figure in nM, leave out the unit.

residue sequence: CUCAAACAUGAGGAUCACCCAUGUAAGGAUAUCCGUAAUAAAUUUGGUAAGAGGCGGCGGAGAAGGUACGCAGC
units label: nM
apparent Kd: 19.1

residue sequence: UCUAUACAUGAGGAUCACCCAUGUCAGGAUAUAAGCACCGGGCGAUUGUCACGCGGCCUUAGAAGGGACAGGAA
units label: nM
apparent Kd: 17.4

residue sequence: CGACAUUCAGGAUAUACAUGAGGAUCACCCAUGUUGAGAAGCACAAGAUACCAUAAAAGUAGAAGGGAACAAAA
units label: nM
apparent Kd: 13.3

residue sequence: CUGAGCAAAGGAUAUACUAAUUGUGAGUGACCCAGUUAACGACAUGAGGAUCACCCAUGUAGAAGGUUGGAACA
units label: nM
apparent Kd: 26.4

residue sequence: UUCAUGUUAGGAUAUAGUGUAAGAGCGGGCGGGACUCUAUUCUAGAAGGAACAUGAGGAUCACCCAUGUUAAGG
units label: nM
apparent Kd: 213

Lab note: record apparent Kd of UAUUGUAUAGGAUAUACAUGAGGAUCACCCAUGUUCGAUGUUUGGAGCCUGCUUCAUAGUAGAAGGAUACGCCC tested on MS2 coat protein.
16.3

Lab note: record apparent Kd of AGUUAACCGGGUGUUCUACAUGAGGAUCACCCAUGUACACUCAGAAGGCUCGAAUCUAGGGAUGGAGAGGAUAUGAAAACUGAU tested on MS2 coat protein.
21.4
